Kindly state growth inhibition for each of the entries shown.
Assay: NCI Yeast Anticancer Drug Screen. Data for the sgs1 mgt1 strain (AID 161);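 note: 0% = growth of cultures given vehicle only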
Conditions: S. cerevisiae sgs1 mgt1 strain, at 50.0 µM, stronger effect = higher value
The panel holds about 79,000 compounds, 15% with a hit somewhere; the sample as a whole holds those more often.
# number only, unit % dropped from output

Q) Which growth inhibition value belongs to `CCC(=O)Oc1c(Cl)cc(Cl)c2ccccc12` ?
A) 32

Q) Similarly, C=C1CC(Cn2cc(Br)c(=O)[nH]c2=O)(c2ccc(-c3ccccc3)cc2)OC1=O (configuration not stated) ?
A) 97.3

Q) Similarly, `CCCC/C=C/C(CC)(C(=O)OCC)C(=O)OCC` ?
A) 10.6

Q) Similarly, `O=C1Nc2ccccc2/C1=C/COc1ccccc1` ?
A) 99.6

Q) Similarly, C/C(=N\O)C1CC2C=C(C#N)C1N(Cc1ccccc1)C2 (configuration not stated) ?
A) 3.75

Q) Similarly, `N#Cc1c(N)[nH]c2ccc(Sc3ccccc3)cc12` ?
A) 52.9

Q) Similarly, `CSC(=S)N/N=C(\C)c1cccc(C)n1` ?
A) 99.3

Q) Similarly, O=C1OC(CCl)CN1/N=C/c1ccc([N+](=O)[O-])o1 (configuration not stated) ?
A) 71.9

Q) Similarly, `O=C(CCCN1CCC(O)(c2ccc(Cl)cc2)CC1)c1ccc(F)cc1` ?
A) 91.4

Q) Similarly, `CN(C)Cc1cc(N=Nc2ccc(Cl)cc2)cc(CN(C)C)c1O` ?
A) 95.2

Q) Similarly, `Brc1ccc(-c2cc3c(cc2C2SCCS2)OCO3)cc1` ?
A) 66.6

Q) Similarly, `O=C1C=CC(=Nc2ccc3c(c2)Cc2cc(NC(=O)C(F)(F)F)ccc2-3)O1` ?
A) 98.3

====

Kindly state growth inhibition for each of the entries shown.
Test: NCI Yeast Anticancer Drug Screen. Data for the wt1 strain (AID 149);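 note: 0% = growth of vehicle-treated wt1 cultures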
Details: S. cerevisiae wt1 strain (SPY 50644) growth inhibition; at 11.0 µM; stronger effect = higher value
This is part of a sample that, as a whole, favours compounds with a hit. Of some 79,000 tested, about 15% had one in any assay.
# number only, unit % dropped from output

Q) Which growth inhibition value belongs to `Oc1ccc2ccccc2c1C(c1ccc(Cl)cc1)c1c(O)ccc2ccccc12` ?
A) 2

Q) Similarly, O=C(c1ccc(Cl)cc1)C1OC12C(=O)Nc1ccccc12 (stereo unspecified) ?
A) 98

Q) Similarly, `CC(C)/C(Cl)=N\OC(=O)Nc1ccccc1F` ?
A) 9

Q) Similarly, `O=C1C=CC(=O)c2c(O)c(Nc3ccc(OC(F)(F)F)cc3)c(Cl)c(O)c21` ?
A) 26

Q) Similarly, `COc1ccc(/C=C2\SC(=S)N(/C=C/c3nc4ccccc4[nH]c3=O)C2=O)cc1OC` ?
A) 10

Q) Similarly, `COCCOC(=O)CCn1cc(F)c(=O)[nH]c1=O` ?
A) 7

Q) Similarly, CCCCCCCC1(N=[N+]=[N-])C(=O)c2ccccc2N(C)C1=O (stereo unspecified) ?
A) 7

Q) Similarly, `O=C1c2ccccc2-c2nc3ccccc3nc21` ?
A) -11

Q) Similarly, `NC(=O)NN=C(CS)CS` ?
A) -1

Q) Similarly, Clc1ccc(SC(/C=C/NNC2=NC(c3ccccc3)C(c3ccccc3)=NN2)c2ccccc2)cc1 (stereo unspecified) ?
A) -2

Q) Similarly, `COc1cc(C(=O)/C=C/c2ccccc2O)ccc1O` ?
A) 98

Q) Similarly, `CCN(CC)CCC(=O)c1ccc(Oc2ccc(F)cc2)cc1` ?
A) 21

Q) Similarly, `O=C(NCCCCNCCCNC(=O)c1cc(-c2ccccc2)nc2ccccc12)c1cc(-c2ccccc2)nc2ccccc12` ?
A) 2

Q) Similarly, CNC1C(OC2C(OC3C(O)C(O)C(N=C(N)N)C(O)C3N=C(N)N)OC(C)C2(O)CO)OC(CO)C(O)C1O (stereo unspecified) ?
A) -4

Q) Similarly, `CCCCCCCCNC(=O)C1=C(C)NC(C)=C(C(=O)NCCCCCCCC)C1` ?
A) 1

Q) Similarly, `Cc1cc(CO)c(O)c(CNCc2cc(C)cc(CO)c2O)c1` ?
A) 25

Q) Similarly, `Cc1ccc2ccc(O)cc2c1` ?
A) -19

Q) Similarly, `N#CSc1ccc(S(N)(=O)=O)cc1` ?
A) -31

Q) Similarly, `COc1cc2c(cc1[N+](=O)[O-])C(=O)C(Br)(Br)CCC2` ?
A) 91

Q) Similarly, `O=[n+]1c2ccc(Cl)cc2n([O-])c2ccc(Cl)cc21` ?
A) 2

Q) Similarly, `Cc1ccc(CCC2=CCCc3c2ccc2ccccc32)cc1` ?
A) -5

Q) Similarly, CN1c2ccc(Cl)cc2C(=O)NC1c1ccc([N+](=O)[O-])s1 (stereo unspecified) ?
A) 17

Q) Similarly, Nc1ccccc1CC(O)C(=O)O (stereo unspecified) ?
A) 13

Q) Similarly, `CNC(=O)OCc1c(COC(=O)NC)c(-c2ccc(-c3ccccc3)cc2)n(C)c1C` ?
A) -12

Q) Similarly, `CC(C)OC(=O)Oc1ccccc1OC(=O)OC(C)C` ?
A) -1

Q) Similarly, `CCS(=O)(=O)c1ccc(/C=C/C=N/NC(=S)NCC(C)C)cc1` ?
A) 5

Q) Similarly, C(=C\c1ccccc1)/COc1ccccc1C(N1CCOCC1)n1nc2ccccc2n1 (stereo unspecified) ?
A) 33

Q) Similarly, `c1ccc2c(c1)sc1nc3ccncc3nc12` ?
A) 21

Q) Similarly, `Oc1cccc2c(Cl)ccnc12` ?
A) 38

Q) Similarly, `COc1ccc2nc3c([N+](=O)[O-])ccc(NCCN(C)C)c3c(NCCN(C)C)c2c1` ?
A) -3

Q) Similarly, O=C1CSC(/C=C/c2ccccc2)N1c1ccc(-c2ccc(-n3c(-c4ccccc4)nc4ccccc4c3=O)cc2)cc1 (stereo unspecified) ?
A) -3

Q) Similarly, `CSC(=S)Nc1cccc(C)n1` ?
A) -25

Q) Similarly, CC(=O)OC1CCC2(C)C(=CCC3C4CCC5(OC6CC(C)CN(C(C)=O)C6C5C)C(C)=C4C(=O)C32)C1 (stereo unspecified) ?
A) 28

Q) Similarly, `O=C1Nc2ccccc2/C1=C/COc1ccccc1` ?
A) 9

Q) Similarly, OC1CCCc2c1cc1ccc3cccc4ccc2c1c34 (stereo unspecified) ?
A) 99

Q) Similarly, `CN(N=O)N1C(=O)SCC(c2ccccc2)(c2ccccc2)C1=O` ?
A) -3

Q) Similarly, `COc1ccccc1N=NC(C(=O)c1ccccc1)C(=O)c1ccccc1` ?
A) 13

Q) Similarly, `Clc1cccc(C(Nc2nncs2)Nc2nncs2)c1Cl` ?
A) 0

Q) Similarly, `Cc1c(C2=C(Br)C(=O)N(C)C2=O)c(=O)n(C)c(=O)n1C` ?
A) 23

Q) Similarly, `O=[N+]([O-])c1ccc(=S)[nH]c1` ?
A) -6

Q) Similarly, `Cc1nn(-c2cc(Cl)ccc2[N+](=O)[O-])c(C)c1Cl` ?
A) 1

Q) Similarly, `O=C1C=CC(=O)N1c1ccc2c(c1)Cc1cc(NC(=O)C(F)(F)F)ccc1-2` ?
A) 27

Q) Similarly, `CC1(C)[C@@H]2CC[C@]1(C)[C@H](OC(=O)CSC#N)C2` ?
A) 14

Q) Similarly, FC(F)(F)c1cc(NC(=S)N2c3ccccc3-n3cccc3C2c2cccnc2)cc(C(F)(F)F)c1 (stereo unspecified) ?
A) -4

Q) Similarly, `Cc1ccc(-c2ccc(Nc3c4ccccc4nc4ccccc34)cc2)cn1` ?
A) 43

Q) Similarly, CCc1ncnc2cc(OCC3CO3)c(OC)cc12 (stereo unspecified) ?
A) 3

Numbers sourced from PubChem BioAssay (NCI).
